Prothrombin (Homo sapiens, UniProt P00734): reported log10(Ki) for various molecules.
Could you please treat all values as log10 of Ki in nM?

The reported log10(Ki) of the molecule N[C@H]1CC[C@H](C(NC(=O)[C@@H]2CC[C@H]3CN(S(=O)(=O)Cc4ccccc4)CC(=O)N32)C(=O)c2nccs2)CC1 (stereo not given in full) was 0.51

Just so you know, measured log10(Ki) for N[C@H]1CC[C@H](C(NC(=O)[C@@H]2CC[C@H]3CN(S(=O)(=O)Cc4ccccc4)CC(=O)N32)C(=O)C(=O)NCC(=O)O)CC1 (stereo not given in full) came out at 0.33

GET /value?item= CNC(=O)C(=O)C(NC(=O)[C@@H]1CC[C@H]2CN(S(=O)(=O)Cc3ccccc3)CC(=O)N21)[C@H]1CC[C@H](N)CC1 (stereo not given in full) &field=log10(Ki) returns -0.48

# log10(Ki) of Cn1nnnc1C(=O)C(NC(=O)[C@@H]1CC[C@H]2CN(S(=O)(=O)Cc3ccccc3)CC(=O)N21)[C@H]1CC[C@H](N)CC1 (stereo not given in full) = 0.70

The recorded log10(Ki) for entry COC(=O)C(=O)C(NC(=O)[C@@H]1CC[C@H]2CN(S(=O)(=O)Cc3ccccc3)CC(=O)N21)[C@H]1CC[C@H](N)CC1 (stereo not given in full) equals -0.89

* * *

Species: Rattus norvegicus
Experiment: Thrombin time was measured in rat arterial thrombosis model
Assay type: functional
Use Criterion met when the recorded TT is no lower than 900 s; use Criterion not met when it is lower.

Query: Threshold query (TT >= 900 s) on Cn1nnnc1C(=O)C(NC(=O)[C@@H]1CC[C@H]2CN(S(=O)(=O)Cc3ccccc3)CC(=O)N21)[C@H]1CC[C@H](N)CC1 (some centres undefined)
Reply: Criterion not met

Query: Determine whether measured TT meets or exceeds 900 s for N[C@H]1CC[C@H](C(NC(=O)[C@@H]2CC[C@H]3CN(S(=O)(=O)Cc4ccccc4)CC(=O)N32)C(=O)C(=O)O)CC1 (some centres undefined)
Reply: Criterion met

Query: Reported TT at or above 900 s? CCSC(=O)C(=O)C(NC(=O)[C@@H]1CC[C@H]2CN(S(=O)(=O)Cc3ccccc3)CC(=O)N21)[C@H]1CC[C@H](N)CC1 (some centres undefined)
Reply: Criterion met

Query: In plain terms: is recorded TT at least 900 s for COC(=O)C(=O)C(NC(=O)[C@@H]1CC[C@H]2CN(S(=O)(=O)Cc3ccccc3)CC(=O)N21)[C@H]1CC[C@H](N)CC1 (some centres undefined) ?
Reply: Criterion met

Query: For this compound, is measured TT 900 s or higher? CNC(=O)C(=O)C(NC(=O)[C@@H]1CC[C@H]2CN(S(=O)(=O)Cc3ccccc3)CC(=O)N21)[C@H]1CC[C@H](N)CC1 (some centres undefined)
Reply: Criterion met

Query: In plain terms: is recorded TT at least 900 s for N[C@H]1CC[C@H](C(NC(=O)[C@@H]2CC[C@H]3CN(S(=O)(=O)Cc4ccccc4)CC(=O)N32)C(=O)c2nc3ccccc3s2)CC1 (some centres undefined) ?
Reply: Criterion not met

Query: Given N[C@H]1CC[C@H](C(NC(=O)[C@@H]2CC[C@H]3CN(S(=O)(=O)Cc4ccccc4)CC(=O)N32)C(=O)c2nccs2)CC1 (some centres undefined) , state whether its TT is at least 900 s.
Reply: Criterion not met

Query: Reported TT at or above 900 s? Cc1nc(C(=O)C(NC(=O)[C@@H]2CC[C@H]3CN(S(=O)(=O)Cc4ccccc4)CC(=O)N32)[C@H]2CC[C@H](N)CC2)sc1C(=O)O (some centres undefined)
Reply: Criterion not met
